Data origin: patent US9150519B2

STUDY_TARGET: S1P1 (Homo sapiens (Human))
MEASUREMENT_NOTES: 35S-GTPγS binding assay, S1P1 membranes
RECORDED_CONDITIONS: membranes from CHO cells expressing S1P1; read-out: S1P1 GTPyS EC50
ASSAY_ENDPOINT: pEC50
Scale: pEC50 equals -log10([C]), with [C] in mol/L.

Notebook: Cc1cc(O)ccc1NC(=O)c1cc(N(C)C2CCC(C)CC2)ncn1 (centres unmarked) [Example 1-32] , pEC50 read as 6.21

Briefly, pEC50 measured for Cn1cnnc1-c1ccc(NC(=O)c2cc(N(CC3CC3)C3CCCCC3)ncn2)cc1 [Example 1-136] : 5.69

Note to self: pEC50 recorded for CCCN(CC1CC1)c1cc(C(=O)Nc2cccc(-n3ccnc3)c2)ncn1 [Example 1-147] was 7.42

pEC50 measured on CCCN(CC1CC1)c1cc(C(=O)Nc2cccc(-n3cncn3)c2)ncn1 [Example 1-143] = 7.10

Form field pEC50, entry CCCN(CC1CC1)c1cc(C(=O)Nc2ccc(CN(C)CCO)cc2C)ncn1 [Example 1-96] : 6.41

Recorded pEC50 (compound CCCN(CC1CC1)c1cc(C(=O)Nc2ccc3nn(CC(=O)O)cc3c2)ncn1 [Example 1-121] ): 5.99

// pEC50 lookup, compound = O=C(O)CCS(=O)(=O)Cc1ccc(NC(=O)c2cc(N(CC3CC3)C3CCCCC3)ncn2)cc1 [Example 1-133] , result: 6.65

Entry Cc1cc(O)ccc1NC(=O)c1cc(OC2CCCCC2)ncn1 [Example 1-34] ; pEC50 = 6.88

* * *

STUDY_TARGET: S1P1 (Homo sapiens (Human), UniProt P21453)
Sequence (P21453 whole entry, species assumed): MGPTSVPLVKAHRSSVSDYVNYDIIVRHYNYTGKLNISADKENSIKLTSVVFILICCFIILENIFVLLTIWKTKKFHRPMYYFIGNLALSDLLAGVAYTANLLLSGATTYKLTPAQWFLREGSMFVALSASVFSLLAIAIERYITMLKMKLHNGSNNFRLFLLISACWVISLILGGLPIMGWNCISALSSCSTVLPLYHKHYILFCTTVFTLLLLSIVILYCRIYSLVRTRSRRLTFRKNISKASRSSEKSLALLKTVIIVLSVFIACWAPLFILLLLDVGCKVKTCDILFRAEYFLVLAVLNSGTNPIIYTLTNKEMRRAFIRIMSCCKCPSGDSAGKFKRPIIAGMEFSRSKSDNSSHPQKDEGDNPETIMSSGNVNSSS
MEASUREMENT_NOTES: 35S-GTPγS binding assay, S1P1 membranes
RECORDED_CONDITIONS: membranes from CHO cells expressing S1P1; read-out: S1P1 GTPyS EC50
ASSAY_ENDPOINT: EC50
Reply with a number, then the unit it belongs to.

In plain terms, CCCN(CC1CC1)c1cc(C(=O)Nc2ccc(S(=O)(=O)NCCCC(=O)O)cc2C)ncn1 [Example 1-108] has a documented EC50 of 238 nM

Query CCCN(CC1CC1)c1cc(C(=O)Nc2ccc(S(=O)(=O)NCCOC)cc2C)ncn1 [Example 1-106] yields EC50 of 202 nM

Form field EC50, entry CCCN(CC1CC1)c1cc(C(=O)Nc2cccc(Cn3ccnc3)c2)ncn1 [Example 1-153] : 481 nM

EC50 in this record for O=C(O)CCCS(=O)(=O)c1ccc(NC(=O)c2cc(N(CC3CC3)C3CCCCC3)ncn2)cc1 [Example 1-132] : 40 nM

Notebook: CCCN(CC1CC1)c1cc(C(=O)Nc2ccc3c(cnn3CC(=O)O)c2)ncn1 [Example 1-116] , EC50 read as 3260 nM

Given item CCC(NCc1ccc(NC(=O)c2cc(N(CC3CC3)C3CCCCC3)ncn2)cc1)C(=O)O (centres unmarked) [Example 1-80] , the value recorded as its EC50 is 287 nM

Lab note: measured EC50 of O=C(Nc1ccc2[nH]ncc2c1)c1cc(N(CC2CC2)C2CCCCC2)ncn1 [Example 1-44] was 9 nM

Lab note: measured EC50 of O=C(Nc1ccc(C(=O)O)c(F)c1)c1cc(N(CC2CC2)C2CCCCC2)ncn1 [Example 1-122] was 4360 nM
